Molecular target: T1, human B7-H1 expressed on cells (human, UniProt Q9NZQ7 19-290)
T1 construct: whole, on cells; also called PD-L1; huB7-H1
T1 sequence (Q9NZQ7 19-290): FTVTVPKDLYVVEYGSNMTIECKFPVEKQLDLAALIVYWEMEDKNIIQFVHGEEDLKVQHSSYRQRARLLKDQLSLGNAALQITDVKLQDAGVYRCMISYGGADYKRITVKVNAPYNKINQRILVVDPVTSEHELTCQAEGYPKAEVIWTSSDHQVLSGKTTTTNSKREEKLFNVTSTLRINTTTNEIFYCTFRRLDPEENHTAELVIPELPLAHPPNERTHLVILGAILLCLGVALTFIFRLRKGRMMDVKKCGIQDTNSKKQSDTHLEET
Test: FACS competition: inhibition of biotinylated PD-1/Fc (10 ug/ml) binding to human B7-H1 on ES-2 cells
Experimental: Briefly, 50000 cells/well were plated in 50 μl of PBS into wells of a 384-well tissue culture plate (Corning Costar, catalog #3712). […] Cells were washed once and 100 μl/well of Cy5-conjugated streptavidin was added and plates were incubated at 4 C for 15 min before being washed again with PBS containing 2% FCS and being read on a FACSCalibur instrument.
reported_property: IC50

2.9D10 (antibody, V domains shown, Tested as hybridoma supernatant or purified antibody; also called mAb 2.9D10) VH: EVQLVESGGGLVQPGGSLRLSCAASGFTFSSYWMSWVRQAPGKGLEWVANIKQDGGEQYYVDSVKGRFTISRDNAKNSLYLQMNSLRAEDTAVYYCARDWNYGYYDMDVWGQGTTVTVSS VL: EIVLTQSPGTLSLSPGERATLSCRASQSVSSNYLAWFQQKPGQAPRLLIFGTSSRATGIPDRFSGSGSGTDFTLTISRLEPEDFAVYYCQQYGSSIFTFGPGTKVDIK
0.109 nM
